- Format: in vivo, human
- condition context: both, human, plasma and urine, oral, CLr, eluxadoline 100 mg plus probenecid 500 mg; arithmetic mean (CV)
measure name: CL renal (mL/min)
Give your result in mL/min as a bare value.

// query CL renal value for entry `COc1ccc(CN(C(=O)[C@@H](N)Cc2c(C)cc(C(N)=O)cc2C)[C@@H](C)c2ncc(-c3ccccc3)[nH]2)cc1C(=O)O`
61.7

* * *

- Assay type: in vivo, human
- condition context: both, human, plasma, oral, AUC(0–inf), Geometric LS Means, Treatment C (+ probenecid 500 mg); only subjects with estimable elimination rates for all 3 treatments (N 7)
measure name: AUC(0-inf) (ng·h/mL)
Please reply with the bare figure in ng·h/mL and do not write the unit itself.

# query: AUC(0-inf) of entry `COc1ccc(CN(C(=O)[C@@H](N)Cc2c(C)cc(C(N)=O)cc2C)[C@@H](C)c2ncc(-c3ccccc3)[nH]2)cc1C(=O)O`
20.4
